assay: yeast display, Sf9 membrane polyspecificity reagent, FACS + sequencing; frameworks hold sequencing errors
experimentalEndpoint: polyreactivity (PSR sort gate)

Example cases with answers are listed next.
QVQLVQAGGGLVQAGGILRLSCAASGFTFQEYAMGWYRQAPGKAREFVAAITYSGGSTYADSVKGRFTISRDNAKNTVYLQMNSLKPEDTAVYYCNAQVYYSVRGYPYGYYRNDYWGQGTQVTVSS
low polyreactivity
QVQLVESGGGLVQAGGSLRLSCAASGSIFGPYAMGWYRQAPGKERELVAAITWTGGRTYYADSVKGRFTISRDNAKNTVYLQMNSLKPVDTAVYDCAADYSPSTWYLYYTLYYYWGEGTQVTVSS
low polyreactivity
QVQLVESGGGLVQAGGSLRLSCAASGRIFDRNAMGWYRQAPGKERELVAAIDDSGGDTSYADSVKGRFTISRDNAKNTVYLQMNSLKPEDTAVYYCNAGYADFVTYPRYYYWGQGTQVTVSS
low polyreactivity
QVQLVESGGGLVQAGGSLRLSCAASGSTFVTYAMGWYRQAPGKEREFVAAISTTGTGRTYYADSVKGRFTISRDNAKNTVYLQMNSLKPEDTAVYYCAADLYGTYDYWGQGTQVTVSS
low polyreactivity
QVQLVESGGGLVQAGGSLRLSCAASGRNFYPYAMVWYRQAPGKERELVAAISKSGGRTYYADSVKGRFTISRDNAKNTVDLQMNSLKPEDTAVYYCNAAPGYTYVTYDYWGQGTLVTVSS
high polyreactivity
QVQLVESGGGLVQAGGSLRLSCAASGSIFWLYAMGWYRQATGKERELVAAINWTGGSTNYADSVKGRFTISRDNAKNTVYLQMNSLKPEDTAVYFCAAEGVPDALDRVYWGQGTQVTVSS
low polyreactivity

The sequence QVQLVESGGGLVQAGGSLRLSCAASGRTFRWYAMGWYRPAPAKERELVAAISSRGGSTYYADSVKGRFTISRDNAKNTVFLQMNSLKPEDTAVYYCAAVDNWLTLSDYDYWGQGTQVTVSS showed polyreactivity (PSR sort gate) equal to low polyreactivity

Recorded polyreactivity (PSR sort gate) (sequence QDQLVESVGGLVQAGGSLRLSCAASGSIFDQNAMGCSRHAPGKESELVAAITRGGSTKYADSVKGRFTISRDNAKNTVYLQMNSLKPEDTAVYYCARTDRRRYQPYEYWGPGTQVTVSS ): low polyreactivity

###

assay: yeast display, Sf9 membrane polyspecificity reagent, FACS + sequencing; frameworks hold sequencing errors
experimentalEndpoint: polyreactivity (PSR sort gate)

Some entries whose results are on file:
QVQLVESGGCLVQAGGSLRLSCAASGRIFYSYAMGWYRQAPGKERELVATISSGGSTNYADSVKGRFTISRDHAKNTVYLQMNSLKPEDTAVYFCAAADRLYWRGVIYRQYDYWGLGTQVTVSS
high polyreactivity
QVQLVESGGGLVQAGGSLRLSCAASGFIFSSYAMGWYRQAPGKERELVAAITVRAGRTYYADSVKGRFTISRDNATNTVYFQMNSVKAEDTAVDYCAAAYRHPYGKYVYWGQGTQVTVSS
high polyreactivity
QVQLVESGGGLVQAGGSLRLSCAASGFTFWTYAMGWYRQAPGKERELVAAIDSGGSTYYADSVKGRFTISRDNAKNTVYLQMNSLKPEDTAVYYCAKDVLAPYSRHDYWGQGTQVTVSS
low polyreactivity
QVQLVESGGGLVQAGGSLRLSCAASGGIFLPNAMGWYRQAPGKERELVAAISTGGSTNYADSVKGRFTISRDTAKNTVYLQMNSLKPEDTAVYYCAATPYNYVGFSRGGDYWGQGTQVTVSS
low polyreactivity
QVHLVESGGGLVQAGGSLRLSCAASGLIFVFYAMGWYRQAPGKERELVAAISRSGTSTYADSVKGRFTISRDNAKNTVYLQMNSLKPEDTAVYYCNAYRYYSPDGYWGQGTHVTVSS
low polyreactivity

Kindly note the recorded polyreactivity (PSR sort gate) for QVQLVESGGGLVQAGGSLRLSCAASGSIFGKNAMGWYRQAPGKERELVASITWDGSSTYYADSVKGRFTISRDNAKNTVYLQMNSLKPEDTAVYYCNADYHVQYEYYPYDYWGQGTQVTVSS , which is low polyreactivity

polyreactivity (PSR sort gate) recorded for this sequence, QVQLVESGGGLVQAGGSIRLSCAASGSTFDPYAMGWYRQAPGKEREVVAAISGSRGGSTNYADSVKGRFTISRDNAKNTVYLQMNSLKQEDTAVFYCNARFSYRNGHYYRYYYGGQGTQVTVSS , is high polyreactivity

Looking up QVQLVESGGGLVQAGGSLRLSCAASGSTFVVNAMGWYRQAPGKERELVAAIDGSDGSTYYADSVKGRFTISRDNAKNTVYLQMNSLKPEDTAVYYCAAEVLGRPDVENDYWGQGTQVTVSS , I see its polyreactivity (PSR sort gate) listed as low polyreactivity

Per the record, QVQLVESGGGLVQAGGSLRLSCAASGRTFWNYAMGWYRQAPGKERDLVAVIRFSDGSTYYAYSVKGRFTISRDNAKNTVYLHMNSLKPEDTAVYYCAAKGPRRWGSGFDYWGQGTQVTVSS has polyreactivity (PSR sort gate) of low polyreactivity

Measured polyreactivity (PSR sort gate) of QVQLVESGGGLVQAGGSLRLSCAPSGIILGYYAMGWYRQAPGKERELVAAISSGGRTYYADSVKGRFTISRDNAKNTVYLQMNSLKPEDTAVYYCAADDTRGREEYDYWGQGTQVTVSS : high polyreactivity

Entry under test: QVQLVESGGGLVQAGGSLRLSCAASGSTFGVYAMGWYRQAPGKERELVAAINYSGRTYYADSVKGRFTISRDNAKNTVYLQMNSLKPEDTAVYYCAARIIVDDVGTKYYYWGQGTQVTVSS . Its polyreactivity (PSR sort gate) was high polyreactivity

Per the records, this sequence ( QVQLVQSGGGLVQAGGTLRLTCAASGSTYAVYAMGWYRQAPGKERELVATIRGRGGSTYYADSVKGRFTISRDYAKNTVYLQMNSLKPEDTAVYYCAADSYPSLGKYDSWGQGTQVTVSS ) has polyreactivity (PSR sort gate) equal to high polyreactivity

Form field polyreactivity (PSR sort gate), entry QVQLVESGGGLVQAGGSLRLSCAASGRTFLYNAMGWYRQAPGKERELVAAISWSGGSTYYADSVKGRFTISRDNAKNTVYLQMIILKPEDTAVYYCAATGRRSGFYYWGQGTQVTVSS : high polyreactivity
